Each entry below carries its reported residual activity.
# assay-target: Serine/threonine-protein kinase mTOR (Homo sapiens)
# experimental-context: at 10 µM
Lab book: enter the figure in %, no units written.

Below: 2 compounds and their reported residual activity.
**Query** Return reported residual activity; argument: `CC#CC(=O)Nc1cc2c(Nc3ccc(F)c(Cl)c3)ncnc2cn1`
**Result** 100

**Query** Return reported residual activity; argument: `Cc1nc2cc3nc(-c4cccs4)cnc3cc2n1C`
**Result** 107

New cases:
**Query** Return reported residual activity; argument: O=C1Nc2ccccc2/C1=C1/Nc2ccccc2/C1=N\OCCC(O)CO (stereo unspecified)
**Result** 96

---

Each entry below carries its reported residual activity.
# assay-target: Protein kinase C beta type (Homo sapiens)
# experimental-context: at 10 µM
Lab book: enter the figure in %, no units written.

**Query** Reported residual activity for Protein kinase C beta type (Homo sapiens), given `Oc1n[nH]c2nnc(-c3c(-c4ccccc4)nn4ccccc34)cc12` ?
**Result** 97

New cases:
**Query** Reported residual activity for Protein kinase C beta type (Homo sapiens), given `O=C1c2ccccc2-[n+]2ccc3c([nH]c4ccccc43)c21` ?
**Result** 88

**Query** Reported residual activity for Protein kinase C beta type (Homo sapiens), given `Cn1cc(/C=C2\C(=O)Nc3ccc(S(N)(=O)=O)cc32)c2ccccc21` ?
**Result** 108

**Query** Reported residual activity for Protein kinase C beta type (Homo sapiens), given `CCN(CC)CCCCN1c2ccccc2Oc2ccc(Cl)cc21` ?
**Result** 95

**Query** Reported residual activity for Protein kinase C beta type (Homo sapiens), given O=C1Nc2ccccc2/C1=C1/Nc2ccccc2/C1=N\OCCC(O)CO (stereo unspecified) ?
**Result** 99

**Query** Reported residual activity for Protein kinase C beta type (Homo sapiens), given `O=C1Nc2cc(Br)ccc2/C1=C1/Nc2ccccc2/C1=N\O` ?
**Result** 95

---

# assay-target: Mitogen-activated protein kinase kinase kinase 7 (Homo sapiens)
# experimental-context: at 1 µM
Each entry below carries its reported residual activity.
Lab book: enter the figure in %, no units written.

**Query** Return reported residual activity; argument: `O=C(Nc1cccc(Nc2cc(Nc3cccc(C(F)(F)F)c3)ncn2)c1)C1CC1`
**Result** 95

**Query** Return reported residual activity; argument: `Cc1cccc(-c2[nH]c(C(C)(C)C)nc2-c2ccc3c(c2)OCO3)n1`
**Result** 89

**Query** Return reported residual activity; argument: `Cc1nc2cc3nc(-c4cccs4)cnc3cc2n1C`
**Result** 96

**Query** Return reported residual activity; argument: `CN(C)CCCn1cc(C2=C(c3c[nH]c4ccccc34)C(=O)NC2=O)c2ccccc21`
**Result** 103

**Query** Return reported residual activity; argument: `Cc1cncc2cccc(S(=O)(=O)N3CCCN(C(=O)CN)C[C@H]3C)c12`
**Result** 88

**Query** Return reported residual activity; argument: `O=C1Nc2cc(Br)ccc2/C1=C1/Nc2ccccc2/C1=N\O`
**Result** 89

New cases:
**Query** Return reported residual activity; argument: `Oc1n[nH]c2nnc(-c3c(-c4ccccc4)nn4ccccc34)cc12`
**Result** 87

**Query** Return reported residual activity; argument: `O=c1c2ccccc2[nH]c(=S)n1CCN1CCC(=C(c2ccc(F)cc2)c2ccc(F)cc2)CC1`
**Result** 97

**Query** Return reported residual activity; argument: `O=c1cc(-c2cccc3c2Sc2ccccc2S3)oc(N2CCOCC2)c1`
**Result** 101

**Query** Return reported residual activity; argument: `O=C(Nc1cccc(Nc2nccc(Nc3cccc(C(F)(F)F)c3)n2)c1)C1CC1`
**Result** 105

Source listed as ChEMBL document CHEMBL2218924.
